Assay: Volume of distribution at steady state in cynomolgus monkey at 0.5 mg/kg, iv administered as single dose measured up to 24 hrs post dose by LC-MS/MS analysis
Type: ADME, organism-based, Macaca fascicularis
Details: in vivo, read-out: Vdss
Parameter: Vd (L/kg)
// units = L/kg; emit number, no label

[
  {
    "Structure notation": "CCOc1ccc(F)c(N2CC[C@@H](Oc3ccc(N4N=C(C(F)(F)F)[C@@H](C)[C@@H]4CC(=O)O)cc3)[C@H](F)C2)c1",
    "Vd (L/kg)": 2.2
  }
]

Next:
Ask: Endpoint output: Vd of COc1cc(N2CC[C@@H](Oc3ccc(N4N=C(C(F)(F)F)[C@@H](C)[C@@H]4CC(=O)O)cc3)[C@H](C)C2)c(Cl)cn1 . Value?
Reply: 0.7

* * *

Assay: Tmax in Beagle dog at 1 mg/kg, po administered as single dose measured up to 24 hrs post dose by LC-MS/MS analysis
Assay type: ADME, organism-based, Canis lupus familiaris
Conditions: in vivo
Parameter: Tmax (min)
// units = min; emit number, no label

Ask: Endpoint output: Tmax of COc1cc(N2CC[C@@H](Oc3ccc(N4N=C(C(F)(F)F)[C@@H](C)[C@@H]4CC(=O)O)cc3)[C@H](C)C2)c(Cl)cn1 . Value?
Reply: 48

* * *

# Cmax per entry
Assay: Cmax in Sprague-Dawley rat at 3 mg/kg, po administered as single dose measured up to 24 hrs post dose by LC-MS/MS analysis
Assay type: ADME, organism-based
Design: dose 3 mg/kg, route oral
Details: in vivo
// units = µM; emit number, no label

[
  {
    "Structure notation": "COc1ccc(F)c(N2CCC(Oc3ccc(N4N=C(C(F)(F)F)[C@@H](C)[C@@H]4CC(=O)O)cc3)CC2)c1",
    "Cmax [µM]": 1.1
  },
  {
    "Structure notation": "COc1cc(N2CC[C@@H](Oc3ccc(N4N=C(C(F)(F)F)[C@@H](C)[C@@H]4CC(=O)O)cc3)[C@H](C)C2)c(Cl)cn1",
    "Cmax [µM]": 3.5
  }
]

Ask: Endpoint output: Cmax of CCOc1ccc(F)c(N2CC[C@@H](Oc3ccc(N4N=C(C(F)(F)F)[C@@H](C)[C@@H]4CC(=O)O)cc3)[C@H](F)C2)c1 . Value?
Reply: 3.2

* * *

Test: Oral bioavailability in cynomolgus monkey at 1 mg/kg administered via gavage as single dose measured up to 24 hrs post dose by LC-MS/MS analysis
Format: ADME, organism-based, Macaca fascicularis
Details: in vivo
Parameter: bioavailability
Reply with the number and its unit after it.

Ask: Endpoint output: bioavailability of COc1cc(N2CC[C@@H](Oc3ccc(N4N=C(C(F)(F)F)[C@@H](C)[C@@H]4CC(=O)O)cc3)[C@H](C)C2)c(Cl)cn1 . Value?
Reply: 61%

* * *

Test: Tmax in C57BL6 mouse at 1 mg/kg, po administered as single dose measured up to 24 hrs post dose by LC-MS/MS analysis
Type: ADME, organism-based
Conditions: in vivo
Parameter: Tmax
Reply with the number and its unit after it.

Ask: Endpoint output: Tmax of COc1cc(N2CC[C@@H](Oc3ccc(N4N=C(C(F)(F)F)[C@@H](C)[C@@H]4CC(=O)O)cc3)[C@H](C)C2)c(Cl)cn1 . Value?
Reply: 1 h

All values here come from ChEMBL document CHEMBL4020824.
